- Tested on: 855422-203-R-J1-PDC complex spheroid growth
- assay details: Anticancer human tumor 855422-203-R-J1-PDC patient-derived bladder carcinoma cell line growth inhibition [AhR]
- experimental conditions: curve of first compound; second compound 10 µM
readout: IC50 (µM)

[a] CC(C)CC(NC(=O)C(Cc1ccccc1)NC(=O)c1cnccn1)B(O)O (stereo not drawn) + CC(CO)NC(=O)c1cc(-c2ccc(Cl)cc2)nn(-c2cnn(C)c2)c1=O
[b] CC1COCCN1c1cc(C2(S(C)(=N)=O)CC2)nc(-c2ccnc3[nH]ccc23)n1 (stereo not drawn) + Cc1ccccc1N=Nc1ccc(NC(=O)c2ccnn2C)c(C)c1
[c] Nc1ccn(C2OC(CO)C(O)C2(F)F)c(=O)n1 (stereo not drawn) + CC(CO)NC(=O)c1cc(-c2ccc(Cl)cc2)nn(-c2cnn(C)c2)c1=O
Asked: // rank above by IC50: first = highest number API: response body holds the labels in the requested order.
Given back: b, c, a

* * *

- System: 855422-203-R-J1-PDC complex spheroid growth
- assay details: Anticancer human tumor 855422-203-R-J1-PDC cell line growth inhibition [AhR];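 also: spheroids exposed to agents for seven days before readout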;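 as to viability, T/C: percent of DMSO vehicle control luminescence viability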
- experimental conditions: second compound 10 µM; first compound 0.0316 µM; stronger effect = lower value
Items are presented alongside their recorded viability, T/C.
Give a bare numeral; the unit % is implied.

{"columns": ["compound", "units symbol", "viability, T/C"],
 "data": [
  ["Cn1ncnc1C1c2n[nH]c(=O)c3cc(F)cc(c23)NC1c1ccc(F)cc1 (stereo unspecified) + CC(CO)NC(=O)c1cc(-c2ccc(Cl)cc2)nn(-c2cnn(C)c2)c1=O", "%", 106],
  ["O=C(c1cc(Cc2n[nH]c(=O)c3ccccc23)ccc1F)N1CCN(C(=O)C2CC2)CC1 + CC(CO)NC(=O)c1cc(-c2ccc(Cl)cc2)nn(-c2cnn(C)c2)c1=O", "%", 109],
  ["COc1cc(Nc2ncc3c(n2)-c2ccc(Cl)cc2C(c2c(F)cccc2OC)=NC3)ccc1C(=O)O + Cc1cncc(-c2nc(NCCc3c[nH]c4ccccc34)c3ncn(C(C)C)c3n2)c1", "%", 27.9],
  ["COc1ccc([C@@H](O)c2cc(-c3ncnc4cc(N5CCOCC5)ccc34)c(F)cc2Cl)nn1 + Cc1ccccc1N=Nc1ccc(NC(=O)c2ccnn2C)c(C)c1", "%", 87.8],
  ["Nc1ncn(C2CC(O)C(CO)O2)c(=O)n1 (stereo unspecified) + Cc1ccccc1N=Nc1ccc(NC(=O)c2ccnn2C)c(C)c1", "%", 84.3]
]}

viability, T/C for 855422-203-R-J1-PDC complex spheroid growth with input O=C(C=Cc1cccc(S(=O)(=O)Nc2ccccc2)c1)NO + Cc1cncc(-c2nc(NCCc3c[nH]c4ccccc34)c3ncn(C(C)C)c3n2)c1 equals 29.9

* * *

- Tested on: 855422-203-R-J1-PDC complex spheroid growth
- assay details: Anticancer human tumor 855422-203-R-J1-PDC cell line growth inhibition [AhR];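 also: spheroids exposed to agents for seven days before readout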;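 as to viability, T/C: percent of DMSO vehicle control luminescence viability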
- experimental conditions: second compound 0.316 µM; first compound 0.0316 µM; stronger effect = lower value
readout: viability, T/C (%)
Give a bare numeral; the unit % is implied.

The cases that follow already have their viability, T/C on record.
{"columns": ["molecule", "units symbol", "viability, T/C"],
 "data": [
  ["CC1COCCN1c1cc(C2(S(C)(=N)=O)CC2)nc(-c2ccnc3[nH]ccc23)n1 (stereo unspecified) + Cc1ccccc1N=Nc1ccc(NC(=O)c2ccnn2C)c(C)c1", "%", 105],
  ["COc1cccc2c1C(=O)c1c(O)c3c(c(O)c1C2=O)CC(O)(C(=O)CO)CC3OC1CC(N)C(O)C(C)O1 (stereo unspecified) + Cc1ccccc1N=Nc1ccc(NC(=O)c2ccnn2C)c(C)c1", "%", 32],
  ["Nc1ccccc1NC(=O)c1ccc(CNC(=O)OCc2cccnc2)cc1 + Cc1cncc(-c2nc(NCCc3c[nH]c4ccccc34)c3ncn(C(C)C)c3n2)c1", "%", 86.9],
  ["Cn1ncnc1C1c2n[nH]c(=O)c3cc(F)cc(c23)NC1c1ccc(F)cc1 (stereo unspecified) + Cc1cncc(-c2nc(NCCc3c[nH]c4ccccc34)c3ncn(C(C)C)c3n2)c1", "%", 90.3],
  ["Cn1ncnc1C1c2n[nH]c(=O)c3cc(F)cc(c23)NC1c1ccc(F)cc1 (stereo unspecified) + CC(CO)NC(=O)c1cc(-c2ccc(Cl)cc2)nn(-c2cnn(C)c2)c1=O", "%", 100]
]}

Kindly note the recorded viability, T/C for Nc1ncn(C2CC(O)C(CO)O2)c(=O)n1 (stereo unspecified) + Cc1ccccc1N=Nc1ccc(NC(=O)c2ccnn2C)c(C)c1 , which is 103

* * *

- System: 855422-203-R-J1-PDC complex spheroid growth
- assay details: Anticancer human tumor 855422-203-R-J1-PDC cell line growth inhibition [AhR];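 also: spheroids exposed to agents for seven days before readout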;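 as to viability, T/C: percent of DMSO vehicle control luminescence viability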
- experimental conditions: second compound 10 µM; first compound 0.0316 µM; stronger effect = lower value
Items are presented alongside their recorded viability, T/C.
Give a bare numeral; the unit % is implied.

{"columns": ["compound", "measured number"],
 "data": [
  ["CC1COCCN1c1cc(C2(S(C)(=N)=O)CC2)nc(-c2ccnc3[nH]ccc23)n1 (configuration not stated) + Cc1ccccc1N=Nc1ccc(NC(=O)c2ccnn2C)c(C)c1", 83.5],
  ["Nc1ccccc1NC(=O)c1ccc(CNC(=O)OCc2cccnc2)cc1 + CC(CO)NC(=O)c1cc(-c2ccc(Cl)cc2)nn(-c2cnn(C)c2)c1=O", 88.9],
  ["CC[C@@]1(O)C(=O)OCc2c1cc1n(c2=O)Cc2cc3c(CN(C)C)c(O)ccc3nc2-1 + Cc1cncc(-c2nc(NCCc3c[nH]c4ccccc34)c3ncn(C(C)C)c3n2)c1", 3.7],
  ["COc1cc(Nc2ncc3c(n2)-c2ccc(Cl)cc2C(c2c(F)cccc2OC)=NC3)ccc1C(=O)O + CC(CO)NC(=O)c1cc(-c2ccc(Cl)cc2)nn(-c2cnn(C)c2)c1=O", 94.7],
  ["NS(=O)(=O)OCC1CC(n2ccc3c(NC4CCc5ccccc54)ncnc32)CC1O (configuration not stated) + CC(CO)NC(=O)c1cc(-c2ccc(Cl)cc2)nn(-c2cnn(C)c2)c1=O", 87.6]
]}

Kindly note the recorded viability, T/C for Nc1ncn(C2CC(O)C(CO)O2)c(=O)n1 (configuration not stated) + CC(CO)NC(=O)c1cc(-c2ccc(Cl)cc2)nn(-c2cnn(C)c2)c1=O , which is 88.3

Kindly note the recorded viability, T/C for COc1cccc2c1C(=O)c1c(O)c3c(c(O)c1C2=O)CC(O)(C(=O)CO)CC3OC1CC(N)C(O)C(C)O1 (configuration not stated) + CC(CO)NC(=O)c1cc(-c2ccc(Cl)cc2)nn(-c2cnn(C)c2)c1=O , which is 32.9

Kindly note the recorded viability, T/C for Nc1ccn(C2OC(CO)C(O)C2(F)F)c(=O)n1 (configuration not stated) + CC(CO)NC(=O)c1cc(-c2ccc(Cl)cc2)nn(-c2cnn(C)c2)c1=O , which is 81.3

* * *

Items are presented alongside their recorded IC50.
- Test system: 855422-203-R-J1-PDC complex spheroid growth
- assay details: Anticancer human tumor 855422-203-R-J1-PDC cell line growth inhibition [AhR];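 also: spheroids exposed to agents for seven days before readout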
- experimental conditions: curve of first compound; second compound 10 µM

{"columns": ["compound", "system under test", "result"],
 "data": [
  ["Nc1ccn(C2OC(CO)C(O)C2(F)F)c(=O)n1 (stereo not drawn) + Cc1cncc(-c2nc(NCCc3c[nH]c4ccccc34)c3ncn(C(C)C)c3n2)c1", "855422-203-R-J1-PDC complex spheroid growth", "< 31.6 nM"],
  ["COc1cccc2c1C(=O)c1c(O)c3c(c(O)c1C2=O)CC(O)(C(=O)CO)CC3OC1CC(N)C(O)C(C)O1 (stereo not drawn) + CC(CO)NC(=O)c1cc(-c2ccc(Cl)cc2)nn(-c2cnn(C)c2)c1=O", "855422-203-R-J1-PDC complex spheroid growth", "< 31.6 nM"]
]}

Kindly note the recorded IC50 for COc1cccc2c1C(=O)c1c(O)c3c(c(O)c1C2=O)CC(O)(C(=O)CO)CC3OC1CC(N)C(O)C(C)O1 (stereo not drawn) + Cc1ccccc1N=Nc1ccc(NC(=O)c2ccnn2C)c(C)c1 , which is < 31.6 nM

* * *

- System: 855422-203-R-J1-PDC complex spheroid growth
- assay details: Anticancer human tumor 855422-203-R-J1-PDC cell line growth inhibition [AhR];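 also: spheroids exposed to agents for seven days before readout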;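 as to viability, T/C: percent of DMSO vehicle control luminescence viability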
- experimental conditions: second compound 0.1 µM; first compound 0.949 µM; stronger effect = lower value
Items are presented alongside their recorded viability, T/C.
Give a bare numeral; the unit % is implied.

The cases that follow already have their viability, T/C on record.
{"columns": ["compound", "measured number"],
 "data": [
  ["CCN(c1cc(-c2ccc(CN3CCOCC3)cc2)cc(C(=O)NCc2c(C)cc(C)[nH]c2=O)c1C)C1CCOCC1 + CC(CO)NC(=O)c1cc(-c2ccc(Cl)cc2)nn(-c2cnn(C)c2)c1=O", 86.2],
  ["O=C(C=Cn1cnc(-c2cc(C(F)(F)F)cc(C(F)(F)F)c2)n1)NNc1cnccn1 + Cc1cncc(-c2nc(NCCc3c[nH]c4ccccc34)c3ncn(C(C)C)c3n2)c1", 30.8],
  ["O=C(C=Cn1cnc(-c2cc(C(F)(F)F)cc(C(F)(F)F)c2)n1)NNc1cnccn1 + Cc1ccccc1N=Nc1ccc(NC(=O)c2ccnn2C)c(C)c1", 53.9]
]}

Kindly note the recorded viability, T/C for CCN(c1cc(-c2ccc(CN3CCOCC3)cc2)cc(C(=O)NCc2c(C)cc(C)[nH]c2=O)c1C)C1CCOCC1 + Cc1cncc(-c2nc(NCCc3c[nH]c4ccccc34)c3ncn(C(C)C)c3n2)c1 , which is 85.3

Kindly note the recorded viability, T/C for CCN(c1cc(-c2ccc(CN3CCOCC3)cc2)cc(C(=O)NCc2c(C)cc(C)[nH]c2=O)c1C)C1CCOCC1 + Cc1ccccc1N=Nc1ccc(NC(=O)c2ccnn2C)c(C)c1 , which is 91.1

Kindly note the recorded viability, T/C for O=C(C=Cn1cnc(-c2cc(C(F)(F)F)cc(C(F)(F)F)c2)n1)NNc1cnccn1 + CC(CO)NC(=O)c1cc(-c2ccc(Cl)cc2)nn(-c2cnn(C)c2)c1=O , which is 40.1

Origin of values: PubChem BioAssay AID1919005
